Attribution: ChEMBL document CHEMBL1201862

Test system: EKVX
PROTOCOL TEXT: NCI tumour cell line growth inhibition, 48 h
Activity calls are given as the source filed them. Rule as the data show it: active = GI50 up to about 1.1 µM and inactive = higher. Where a SMILES comes first, the peptide text is derived from it. [ ]: non-standard residue; d: D form. The star is where a group is joined. ξ: configuration not given here. X4 = COc1ccc(C(N*)c2ccc(OC)cc2)cc1; NMeF = CN[C@@H](Cc1ccccc1)C(=O)O; NMeD = CN[C@@H](CC(=O)O)C(=O)O; NMeV = CN[C@H](C(=O)O)C(C)C; ξNMeV = CNC(C(=O)O)C(C)C; Boc = CC(C)(C)OC(=O)*; ξNMeA = CNC(C)C(=O)O; ξV = CC(C)C(N)C(=O)O
Form entry, call: pick from active, inactive

As a guide, the following entries are already answered.
# COMPOUND, LABEL VALUE
measured = [
    ("CC(=O)c1ccc(OCC(O)CO)cc1 (stereo not drawn)", "inactive"),
    ("Sc1nnc(C(c2ccccc2)c2ccccc2)[nH]1", "inactive"),
    ("CN1CN(c2ccccc2)C2(CCN(Cc3nc4ccccc4s3)CC2)C1=O", "inactive"),
]

Data request: Name the outcome recorded for Oc1cc(-c2ccc(Oc3ccccc3)cc2)nc2cc3c(cc12)OCO3 in the assay.
Data returned: inactive

Data request: Request: COc1ccc(C(NC(=O)C[C@@H](C(=O)N(C)C(C)C(=O)O)N(C)C(=O)[C@@H]2CCCN2C(=O)[C@H](C(C)C)N(C)C(=O)C(C(C)C)N(C)C(=O)[C@H](Cc2ccccc2)N(C)C(=O)C(NC(=O)OC(C)(C)C)C(C)C)c2ccc(OC)cc2)cc1 (stereo partly drawn) (Boc-[ξV][NMeF][ξNMeV][NMeV]P[NMeD](X4)[ξNMeA]-OH)
Data returned: inactive

Data request: Query CC(C)=CCc1cc2c(cc1O)OC[C@H]1c3cc4c(cc3O[C@@H]21)OCO4 next
Data returned: inactive

Data request: Subsequent entry: COc1cc([C@@H]2c3cc4c(cc3[C@@H](Nc3ccc(NC(=O)c5cc([N+](=O)[O-])cn5C)cc3)[C@H]3COC(=O)[C@H]23)OCO4)cc(OC)c1O
Data returned: active

Data request: Follow-up entry: O=[N+]([O-])C(=C/c1cccc2ccccc12)/C(=C\c1cccc2ccccc12)[N+](=O)[O-]
Data returned: inactive

====

System: RPMI-8226
PROTOCOL TEXT: NCI tumour cell line growth inhibition, 48 h
The source made the active and inactive calls. No stated cut-off is given here; in the data, active = GI50 up to about 1.1 µM and inactive = higher.
// classify into active, inactive

# MOLECULE, MEASURED TARGET, LABEL VALUE
rows = [
    ("O=C(O)CC(O)(C(=O)O)C(O)C(=O)O (configuration not stated)", "RPMI-8226", "inactive"),
    ("C=CC(C)(C)/C=C/c1ccc(O)cc1", "RPMI-8226", "inactive"),
    ("CCOC(=O)c1c(-c2ccc(OC)cc2)c(C#N)c(=S)n(C2OC(CO)C(O)C(O)C2O)c1-c1ccccc1 (configuration not stated)", "RPMI-8226", "inactive"),
]

Data request: What did the test return for COC(=O)c1cccc2c1Oc1ccccc1S2 ?
Data returned: inactive

Data request: Similarly, C(=N\c1ccc(-c2nc3ccccc3[nH]2)cc1)/c1cccs1 ?
Data returned: inactive

Data request: Now consider Cc1nc(-c2nc(C)c(C(=O)/C=C/c3ccc([N+](=O)[O-])cc3)s2)sc1C(=O)/C=C/c1ccc([N+](=O)[O-])cc1 and answer again.
Data returned: inactive

Data request: # repeat for Cc1cc(C)cc(NC(N)=S)c1
Data returned: inactive

Data request: Next molecule up: CCOP(=O)(OCC)C(C)(CC)N/C(N)=N/C#N (configuration not stated)
Data returned: inactive

Data request: Now this one: COC(=O)c1c(CC(=O)OC(C)C)cc2n(c1=O)Cc1c-2nc2ccccc2c1OC
Data returned: inactive

Data request: Entry Cc1cn(CC2=NCC(C)(C)N2)c(=O)[nH]c1=O please
Data returned: inactive

Data request: Next entry: Nc1n[n+]2cc(-c3ccccc3)n(CC(=O)c3ccccc3)c2s1
Data returned: inactive

Data request: Ok, now CSc1c(C#N)c(=O)n(N)c2[nH]nc(C)c12
Data returned: inactive

Data request: Try the molecule COC(=O)[C@]1(c2ccc(N(C)C)cc2OC)C[C@@H]2CCCN(CCc3c1[nH]c1ccccc31)C2
Data returned: inactive

Data request: And then O=c1c2cc([N+](=O)[O-])ccc2sc2ccsc12 , what is it?
Data returned: inactive

Data request: Same question for NC(CCC(=O)O)C(=O)NC(Cc1ccc(N(CCCl)CCCl)cc1)C(=O)O (configuration not stated) please.
Data returned: inactive

Data request: // query: COc1ccc(C2[C@H]3C(=O)N(c4ccc(Cc5ccc(N6C(=O)[C@@H]7ON(c8ccccc8)C(c8ccc(OC)cc8)[C@@H]7C6=O)cc5)cc4)C(=O)[C@H]3ON2c2ccccc2)cc1 (some centres not stated)
Data returned: inactive

Data request: Try this molecule too: CC1(C)O[C@H]2Cn3c(c(C#N)c4ccccc43)[C@H]2O1
Data returned: inactive

Data request: Further, for CC(C)OCC1CC(CC(=O)Nc2nncs2)C(=O)O1 (configuration not stated) ?
Data returned: inactive

Data request: Try CC(C)/C(Cl)=N/OC(=O)Nc1ccc(OC(F)(F)F)cc1 next.
Data returned: inactive

Data request: Could you do the same for C#CCNC(=O)ON1C(=O)CCC1=O , please?
Data returned: inactive

Data request: Same lookup for CC(C)(C)c1cc(C(OCCl)(C(F)(F)F)C(F)(F)F)c2c(c1)C(C(F)(F)F)(C(F)(F)F)OC21c2ccccc2C(=O)c2ccccc21 , please.
Data returned: inactive

Data request: Please give the result for CCOP(=O)(C/C=C/Cn1nc(Br)c(=O)[nH]c1=O)OCC too.
Data returned: inactive

Data request: Same again, this time with Cc1c(CNc2ccc(C(=O)NC(CC(=O)O)C(=O)O)cc2)ccc2nc(N)nc(N)c12 (configuration not stated)
Data returned: active

Data request: Ok, now COc1ccc(N2C(=O)c3cc(C)cnc3S2(=O)=O)cc1
Data returned: inactive

====

System: HOP-92
PROTOCOL TEXT: NCI tumour cell line growth inhibition, 48 h
Active and inactive are the calls of the source. No stated cut-off is given here; in the data, active = GI50 up to about 1.1 µM and inactive = higher.
Can you answer with just one of these options? class 1 (active), class 0 (inactive)

# MOLECULE, LABEL VALUE
rows = [
    ("CC[C@@]12CCC(=S)N(CCSc3ccccc3)[C@@H]1c1c(n(S(=O)(=O)c3ccc(OC)cc3)c3ccccc13)CC2", "class 0"),
    ("CC1CN(c2ccc(Cl)cc2)CC(C)(C)OC(=O)O1 (stereo unspecified)", "class 0"),
    ("COC(=O)/C=C\\C(C#N)(C#N)/N=C/c1ccc(Br)s1", "class 0"),
    ("CCOC(=O)C1N(S(=O)(=O)c2ccc(C)cc2)CCC12C(c1ccc(OC)cc1)NC1CCCCC12 (stereo unspecified)", "class 0"),
    ("CC(C)(C)CC(C)(C)c1cc(O)c(O)c(CN2CCCCC2)c1", "class 0"),
]

Data request: Returns: the outcome recorded for Cc1occc(=O)c1O in this assay.
Data returned: class 0

Data request: Now try COc1cc([C@@H]2c3cc4c(cc3[C@@H](Nc3ccc(NC(=O)c5cc([N+](=O)[O-])cn5C)cc3)[C@H]3COC(=O)[C@H]23)OCO4)cc(OC)c1O .
Data returned: class 1

Data request: What about O=C(O)CCS/C(=C\C(SCCC(=O)O)c1ccc(Cl)cc1)c1ccc(Cl)cc1 (stereo unspecified) ?
Data returned: class 0

====

Entries and their measured GI50 follow.
Tested on: UO-31
PROTOCOL TEXT: NCI tumour cell line growth inhibition, 48 h
Calls of active or inactive are those of the source. Cut-off read from the data, not from the text of the source: active = GI50 up to about 1.1 µM and inactive = higher.

See these solved cases before continuing.
# MOLECULE, GI50
data = [
    ("CCCCC1=NNC(=O)C1", "> 100 µM (inactive)"),
    ("Cc1cc(C)c2c(=O)n(CN3CC4Nc5ccccc5C4C3)sc2n1 (stereo not drawn)", "16.3 µM (inactive)"),
]

# input for lookup
Data request: Short answer please: GI50, UO-31, entry COc1cc2c(cc1OC)NC(=O)NC(Cc1ccc3c(c1)OCO3)CC2 (stereo not drawn)
Data returned: 76.9 µM (inactive)

====

Tested on: SW-620
PROTOCOL TEXT: NCI tumour cell line growth inhibition, 48 h
The source made the active and inactive calls. Cut-off read from the data, not from the text of the source: active = GI50 up to about 1.1 µM and inactive = higher.
I would appreciate it if you answered using one of these outcomes: active, inactive

Check out these entries, answers already filled in.
# COMPOUND, MEASURED TARGET, LABEL VALUE
data = [
    ("Cc1cc(C)cc(NC(N)=S)c1", "SW-620", "inactive"),
    ("CC/C(=N\\NC(=O)c1cccnc1)c1ccc2c(c1)OCCO2", "SW-620", "inactive"),
    ("COC(=O)c1ccccc1C1CN=NC12Cc1c(C)c3c(c(C)c1C2=O)CCC3 (stereo not given)", "SW-620", "inactive"),
    ("S=c1[nH]nc(Cn2c3ccc(Br)cc3c3nc4ccccc4nc32)n1C1CCCCC1", "SW-620", "inactive"),
    ("CC(CC[C@@]1(C)C(=O)CCC2O[C@]21C)[C@H]1C[C@@H](c2ccoc2)OC1=O (stereo not given in full)", "SW-620", "inactive"),
]

// switching to the query compound
Data request: Hi team, can someone confirm the assay call for Cc1cc(Cl)ccc1NC(=O)CCCC(=O)C1CCCC1=O (stereo not given) ?
Data returned: inactive
